# targetOfAssay: N-terminally truncated recombinant hDHODH enzyme (Homo sapiens, UniProt Q02127)
# Sequence (Q02127 whole entry, looked up, the tested form may be a part): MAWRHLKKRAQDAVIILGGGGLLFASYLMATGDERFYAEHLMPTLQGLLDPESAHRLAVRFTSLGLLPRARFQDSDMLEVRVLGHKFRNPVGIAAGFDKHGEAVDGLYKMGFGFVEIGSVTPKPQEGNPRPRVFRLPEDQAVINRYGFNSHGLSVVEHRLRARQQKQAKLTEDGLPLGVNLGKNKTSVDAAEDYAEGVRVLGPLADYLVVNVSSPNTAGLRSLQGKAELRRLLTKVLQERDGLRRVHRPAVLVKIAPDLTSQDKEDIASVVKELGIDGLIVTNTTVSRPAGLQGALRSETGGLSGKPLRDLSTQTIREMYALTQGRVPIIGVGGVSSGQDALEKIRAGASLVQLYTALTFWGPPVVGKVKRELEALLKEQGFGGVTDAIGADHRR
# testDetails: biochemical
# Type: biochemical
# assaySetup: matched pair comparison; read-out: DHODH IC50
measurementType: pIC50
pIC50 is defined as minus the log10 of a concentration measured in mol/L.

Enquiry: Name the recorded pIC50 for CONC(=O)C1=C(C(=O)Nc2ccc(-c3cccc(OC)c3)cc2F)CCC1 [Example 4/33] .
Return: 5.69

###

# testDetails: Mouse pharmacokinetics, male and female, cassette dosing
# Type: in vivo, mice (C57BL/6J)
# assaySetup: C57BL/6J, mouse, in vivo; female mice; 5 mg/kg oral, 1 mg/kg intravenous cassette
# Protocol: The pharmacokinetics of the compounds of the present invention was evaluated in 3 male and 3 female mice (C57BL/6J, 8 week old) after oral or intravenous cassette dosing to assess the oral bioavailability. Dose was 5 mg/kg (oral) and 1 mg/kg (intravenous), application volume was 5 mL/kg (oral) and 0.5 mL/kg (intravenous), vehicle was 5% solutol, 95% NaCl solution (at 0.9% saline concentration) for oral and 5% solutol, 5% ethanol, 90% NaCl solution (at 0.9% saline concentration) for intravenous. […]
Please respond with reported Cmax for every item in the list.
Reply with the number, then its unit.

Enquiry: Cmax lookup needed for [2H]C([2H])([2H])Oc1cccc(-c2cc(F)c(NC(=O)C3=C(C(=O)NOC)CCC3)c(F)c2)c1 [Example 4] , thanks.
Return: 690 ng/mL

Enquiry: Name the reported Cmax value associated with the molecule CS(=O)(=O)NC(=O)C1=C(C(=O)Nc2c(F)c(F)c(-c3cccc(OC(F)(F)F)c3)c(F)c2F)CCC1 [Example 1]
Return: 1320 ng/mL

Enquiry: Item [2H]C([2H])([2H])Oc1cccc(-c2cc(F)c(NC(=O)C3=C(C(=O)NS(N)(=O)=O)CCC3)c(F)c2)c1 [Example 2/1] has what recorded Cmax?
Return: 2280 ng/mL
